- tested.system: Histone deacetylase 1 (Homo sapiens, UniProt Q13547)
- Sequence (Q13547 whole entry): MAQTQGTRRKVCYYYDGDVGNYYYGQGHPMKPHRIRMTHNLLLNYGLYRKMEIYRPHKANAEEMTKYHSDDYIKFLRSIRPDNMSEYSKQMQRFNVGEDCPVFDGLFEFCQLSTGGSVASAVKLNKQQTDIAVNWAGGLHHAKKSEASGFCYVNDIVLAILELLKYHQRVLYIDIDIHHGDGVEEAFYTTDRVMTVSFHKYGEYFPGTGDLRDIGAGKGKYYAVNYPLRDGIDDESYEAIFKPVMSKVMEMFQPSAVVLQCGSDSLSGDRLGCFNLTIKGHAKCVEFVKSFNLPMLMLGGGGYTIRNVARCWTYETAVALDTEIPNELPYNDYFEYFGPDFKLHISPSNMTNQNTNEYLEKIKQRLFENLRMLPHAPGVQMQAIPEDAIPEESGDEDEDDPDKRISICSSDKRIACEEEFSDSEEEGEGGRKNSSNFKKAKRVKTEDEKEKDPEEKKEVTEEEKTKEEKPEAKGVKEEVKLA
- method.description: Inhibition of human recombinant HDAC1 using RHKKAc peptide as substrate incubated for 5 to mins prior to substrate addition measured after 2 hrs
measurement.type: pIC50
Give bare numbers, as −log10 of the molar value.

O=C(NO)c1ccc(Cn2c3c(c4ccccc42)CCNC3)cc1	5.01

Give pIC50 for all molecules that follow.
1. CN1CCc2c(c3cc(C(C)(C)C)ccc3n2Cc2ccc(C(=O)NO)cc2)C1
2. COc1ccc2c(c1)c1c(n2Cc2ccc(C(=O)NO)cc2)CCN(C)C1
3. O=C(NO)c1ccc(Cn2c3c(c4ccccc42)CNCC3)cc1

Response line:
4.85
5.73
4.79
